Value source: patent US12559474B2

Listing of recorded pIC50 by entry.
# assayedSystem: SARS-CoV-2 3CL protease (Severe acute respiratory syndrome coronavirus 2)
# assayOverview: biochemical
# reportedConditions: 50% SARS-CoV-2 3CL protease inhibitory concentration; RapidFire MS; read-out: IC50
Scale explanation: pIC50 corresponds to minus log10 of a concentration expressed in moles per litre.

Before answering, review these 3 worked examples.
{"compoundStructure": "N#Cc1cc(Cn2c(Nc3ccc4nn(CC(F)F)cc4c3)nc(=O)n(-c3cncc(Cl)c3)c2=O)ccc1F", "assayedSystem": "SARS-CoV-2 3CL protease (Severe acute respiratory syndrome coronavirus 2)", "pIC50": 7.82}
{"compoundStructure": "N#Cc1cc(Cn2c(Nc3ccc4c(c3)CCO4)nc(=O)n(-c3cncc4ccccc34)c2=O)ccc1F", "assayedSystem": "SARS-CoV-2 3CL protease (Severe acute respiratory syndrome coronavirus 2)", "pIC50": 8.37}
{"compoundStructure": "Cn1cc2cc(Nc3nc(=O)n(-c4cnc5ccccn45)c(=O)n3Cc3cc(F)c(F)c(Cl)c3)c(Cl)cc2n1", "assayedSystem": "SARS-CoV-2 3CL protease (Severe acute respiratory syndrome coronavirus 2)", "pIC50": 7.08}

Next, consider the following molecule.
Documented pIC50 of Cc1cncc(-n2c(=O)nc(Nc3cc4cn(C)nc4cc3Cl)n(Cc3cc(C#N)c(F)cc3Cl)c2=O)c1 : 8.60

* * *

# assayedSystem: SARS-CoV-2 3CL protease (Severe acute respiratory syndrome coronavirus 2, UniProt P0DTD1)
# assayOverview: biochemical
# reportedConditions: 50% SARS-CoV-2 3CL protease inhibitory concentration; RapidFire MS; read-out: IC50
parameterMeasured: pIC50
Scale explanation: pIC50 corresponds to minus log10 of a concentration expressed in moles per litre.

{"compound": "COc1ccc(Nc2nc(=O)n(-c3cncc4ccccc34)c(=O)n2Cc2ccc(F)c(C#N)c2)cc1 [Compound I-0377]", "pIC50": 8.10}

SARS-CoV-2 3CL protease (Severe acute respiratory syndrome coronavirus 2, UniProt P0DTD1) data for Cc1cncc(-n2c(=O)nc(Nc3cc4cn(CC(F)F)nc4cc3Cl)n(Cc3ccc(F)c(C#N)c3)c2=O)c1 [II-0089] ; its pIC50: 8.44

SARS-CoV-2 3CL protease (Severe acute respiratory syndrome coronavirus 2, UniProt P0DTD1) data for Cc1cncc(-n2c(=O)nc(Nc3ccc4nn(CC(F)F)cc4c3)n(Cc3cc(C#N)c(F)cc3C)c2=O)c1 [II-0278] ; its pIC50: 8.51

SARS-CoV-2 3CL protease (Severe acute respiratory syndrome coronavirus 2, UniProt P0DTD1) data for Cc1nc2cc(C)c(Nc3nc(=O)n(-c4cncc5ccccc45)c(=O)n3Cc3ccc(F)c(C#N)c3)cc2o1 [II-0192] ; its pIC50: 7.43

SARS-CoV-2 3CL protease (Severe acute respiratory syndrome coronavirus 2, UniProt P0DTD1) data for Cc1cncc(-n2c(=O)nc(Nc3cc4cn(C)nc4cc3Cl)n(Cc3cc(F)c(F)c(C#N)c3)c2=O)c1 [II-0130] ; its pIC50: 8.72

SARS-CoV-2 3CL protease (Severe acute respiratory syndrome coronavirus 2, UniProt P0DTD1) data for CCn1cc2cc(Nc3nc(=O)n(-c4cncc(C)c4)c(=O)n3Cc3ccc(F)c(C#N)c3)ccc2n1 [II-0010] ; its pIC50: 7.72

SARS-CoV-2 3CL protease (Severe acute respiratory syndrome coronavirus 2, UniProt P0DTD1) data for Cc1cncc(-n2c(=O)nc(Nc3cc(-c4ccc[nH]c4=O)sc3C)n(Cc3cc(F)c(F)c(F)c3)c2=O)c1 [II-0289] ; its pIC50: 6.62

* * *

# System: SARS-CoV-2
# assayOverview: microbe, parasite or virus in culture
# Assay type: cell-based
# reportedConditions: Severe acute respiratory syndrome coronavirus 2, VeroE6/TMPRSS2, 72 h, 50% SARS-CoV-2 infected cell death inhibitory concentration; VeroE6/TMPRSS2 cells, 3 days culture, CellTiter-Glo 2.0
Listing of recorded log10 EC50 by entry.
Would you kindly interpret these values as log10 of EC50 expressed in nM?

Before answering, review these 4 worked examples.
{"compoundStructure": "O=c1nc(Nc2cc3cn(CCO)nc3cc2Cl)n(Cc2cc(F)c(F)c(F)c2)c(=O)n1-c1cncc2ccccc12", "log10 EC50": 2.87}
{"compoundStructure": "Cn1cc2cc(Nc3nc(=O)n(-c4cncc(C(F)(F)F)c4)c(=O)n3Cc3cc(F)c(F)c(F)c3)c(Cl)cc2n1", "log10 EC50": 3.82}
{"compoundStructure": "COc1ccc(Nc2nc(=O)n(-c3nncc4cnn(C)c34)c(=O)n2Cc2cc(F)c(F)c(F)c2)cc1", "log10 EC50": 3.37}
{"compoundStructure": "CCn1cc2cc(Nc3nc(=O)n(-c4cncc(C)c4)c(=O)n3Cc3ccc(F)c(C#N)c3)c(Cl)cc2n1", "log10 EC50": 2.08}

Next, consider the following molecule.
Documented log10 EC50 of Cc1cncc(-n2c(=O)nc(Nc3ccc4nn(CC(F)F)cc4c3)n(Cc3cc(C#N)ccc3Cl)c2=O)c1 : 2.78

* * *

# Test system: SARS-CoV-2
# assayOverview: microbe, parasite or virus in culture
# Format: cell-based
# reportedConditions: Severe acute respiratory syndrome coronavirus 2, VeroE6/TMPRSS2, 72 h, 50% SARS-CoV-2 infected cell death inhibitory concentration; VeroE6/TMPRSS2 cells, 3 days culture, CellTiter-Glo 2.0
parameterMeasured: pEC50
Scale explanation: pEC50 corresponds to minus log10 of a concentration expressed in moles per litre.

{"compoundStructure": "O=c1[nH]cccc1Cn1c(=O)nc(NC2(c3ccccc3F)COC2)n(Cc2cc(F)c(F)c(F)c2)c1=O", "resultValue": 4.85}

Documented pEC50 of Cn1cnc(Cn2c(=O)nc(Nc3cc4sc(NC5CC5)nc4cc3Cl)n(Cc3cc(F)c(F)cc3F)c2=O)n1 : 6.39

Documented pEC50 of CCn1cc2cc(Nc3nc(=O)n(-c4cncc(Cl)c4)c(=O)n3Cc3cc(C#N)c(F)cc3C)ccc2n1 : 6.61

Documented pEC50 of Cc1ccc(C#N)cc1Cn1c(Nc2ccc3nn(CC(F)(F)F)cc3c2)nc(=O)n(-c2cncc(Cl)c2)c1=O : 6.67

Documented pEC50 of COc1nc2cc(Cl)c(Nc3nc(=O)n(Cc4ccc[nH]c4=O)c(=O)n3Cc3cc(F)c(F)c(F)c3)cc2s1 : 5.20

Documented pEC50 of CCn1cc2cc(Nc3nc(=O)n(-c4cncc(C)c4)c(=O)n3Cc3cc(C#N)c(F)cc3C)c(Cl)cc2n1 : 7.19

Documented pEC50 of Cn1cc2cc(Nc3nc(=O)n(-c4cncc(Cl)c4)c(=O)n3Cc3cc(F)c(F)c(Cl)c3)ccc2n1 : 6.10

* * *

# assayedSystem: SARS-CoV-2 3CL protease (Severe acute respiratory syndrome coronavirus 2, UniProt P0DTD1)
# assayOverview: biochemical
# reportedConditions: 50% SARS-CoV-2 3CL protease inhibitory concentration; RapidFire MS; read-out: IC50
parameterMeasured: pIC50
Scale explanation: pIC50 corresponds to minus log10 of a concentration expressed in moles per litre.

Before answering, review these 5 worked examples.
{"compoundStructure": "Cc1cncc(-n2c(=O)nc(Nc3cc4cn(C)nc4cc3Cl)n(Cc3cc(C#N)ccc3Cl)c2=O)c1", "resultValue": 8.68}
{"compoundStructure": "COc1nc2cc(Cl)c(Nc3nc(=O)n(Cc4ccc[nH]c4=O)c(=O)n3Cc3cc(F)c(F)c(F)c3)cc2s1", "resultValue": 6.96}
{"compoundStructure": "COc1ccc(Nc2nc(=O)n(-c3cncc(C)c3)c(=O)n2-c2cccc(Cl)c2)cc1", "resultValue": 6.00}
{"compoundStructure": "Cn1cc2cc(Nc3nc(=O)n(Cc4cc5ccsc5[nH]c4=O)c(=O)n3Cc3cc(F)c(F)c(F)c3)c(Cl)cc2n1", "resultValue": 8.38}
{"compoundStructure": "Cn1cc2cc(Nc3nc(=O)n(-c4cncc(Cl)c4)c(=O)n3Cc3ccc(F)c(C#N)c3)ccc2n1", "resultValue": 7.72}

Documented pIC50 of COc1cc(F)c(C#N)cc1Cn1c(Nc2cc3cn(C)nc3cc2Cl)nc(=O)n(-c2cncc(C)c2)c1=O : 7.92

Documented pIC50 of CCn1cc2cc(Nc3nc(=O)n(-c4cncc(C)c4)c(=O)n3Cc3cc(C#N)c(F)cc3C)ccc2n1 : 8.49

Documented pIC50 of Cn1cnc(Cn2c(=O)nc(Nc3cc4cn(C)nc4cc3Cl)n(Cc3cc(F)c(F)c(Cl)c3)c2=O)n1 : 8.33

* * *

# assayedSystem: SARS-CoV-2 3CL protease (Severe acute respiratory syndrome coronavirus 2)
# assayOverview: biochemical
# reportedConditions: 50% SARS-CoV-2 3CL protease inhibitory concentration; RapidFire MS; read-out: IC50
Listing of recorded pIC50 by entry.
Scale explanation: pIC50 corresponds to minus log10 of a concentration expressed in moles per litre.

{"compoundStructure": "Cn1cnc(Cn2cc3cc(Nc4nc(=O)n(Cc5ncn(C)n5)c(=O)n4Cc4cc(Cl)c(F)cc4F)c(Cl)cc3n2)n1", "pIC50": 8.22}

Documented pIC50 of O=c1[nH]cccc1Cn1c(=O)nc(Nc2cc3c(cc2Cl)nc2n3CCOC2)n(Cc2cc(F)c(F)c(F)c2)c1=O : 8.14

Documented pIC50 of Cc1ccc(C#N)cc1Cn1c(Nc2ccc3nn(C)cc3c2)nc(=O)n(-c2cncc(Cl)c2)c1=O : 8.15

Documented pIC50 of Cn1cc2cc(Nc3nc(=O)n(-c4cncc5c4COC5)c(=O)n3Cc3cc(Cl)c(F)cc3F)c(Cl)cc2n1 : 7.92

Documented pIC50 of Cc1cncc(-n2c(=O)nc(Nc3cc4cn(CC(F)F)nc4cc3Cl)n(Cc3cc(F)c(F)c(F)c3)c2=O)c1 : 7.80

Documented pIC50 of Cc1cncc(-n2c(=O)nc(Nc3ccc4nn(C)cc4c3)n(Cc3ccc(F)c(C#N)c3)c2=O)c1 : 7.82

Documented pIC50 of Cn1cnc(Cn2c(=O)nc(Nc3cc4cn(CC(F)F)nc4cc3Cl)n(Cc3cc(F)c(F)cc3F)c2=O)n1 : 8.06
